Hello, the source for this data is PubChem BioAssay (NCI), in case you need it.

# Test system: UO-31 renal
# Procedure Text: NCI tumour cell line growth inhibition, 48 h
GI50 reference

Recorded GI50, per entry:
Q) Report GI50 for "Cc1cc(S(=O)(=O)/N=C/N(C)C)c(SC(=O)c2ccc(Cl)cc2)cc1Cl" please.
A) > 100 µM

Q) Now the compound COc1cccc(/C=N/NC(=S)NC2CC3CCC2C3)c1O (stereo not given)
A) 2.3 µM

Q) Now the compound N#Cc1c(Br)n(C2OC(CO)C(O)C2O)c2ncnc(N)c12 (stereo not given)
A) 2.25 µM

Q) Now the compound CCC(c1ccc(OC)cc1)C(CC)c1ccc(O)c(CN2CCN(C)CC2)c1 (stereo not given)
A) 1.83 µM

Further cases:
Q) Report GI50 for "Clc1ccc(-c2csc(Nc3cccc(-c4csc(-c5ccccc5)n4)c3)n2)cc1" please.
A) 12.4 µM
